# Protocol: yeast display, Sf9 membrane polyspecificity reagent, FACS + sequencing; frameworks hold sequencing errors

Sequence data	polyreactivity (PSR sort gate)
QVQLVESGGGLVQAGGSLRLSCAASGLTISWYAMGWYRQAPGKEWELVAAISTRGGRTYYADSVKGRFTISRDNAKNTVYLQMNSRKQEDNAVYYCAAGVYYRYLWLFDYWGQGTQVTVSS	high polyreactivity
QVQLVESGGGLDQAGGSLRLSCAASGRISGYYDMVWYRQAPGKERELVATITSDGGTNYADSVKGRFTISRDNAKNCVYLQINSLKPEDTAVYYCAAYGWYTKWHFAYGYWGQGTQVTVSS	low polyreactivity
QVQLVDSGGGLVQAGGSLRISCAASGRTFYWYAMGWSRQAPGKEREFVAAISWNVGSTYYADSVKGRFTISRDHAKNTVYLQMNSLKPEDTAVYYCAAELGYPYSTYADWYYYWGQGTQVTVSS	high polyreactivity
QVQLVESGGGLVQAGGSLRLSCAASGSIFNWNAMGWYRQAPGKERDLVATITITTSTNYADSVKGRFTISRDNAKNSVYLQMNCLKPEDNGVYYCNAGDPYRYLDDYNYWGQGTKVTVSS	low polyreactivity

Reference for the values: the nanobody polyreactivity screen of Harvey et al. (2022)
